Data credit: PubChem BioAssay (NCI)

- Tested on: HOP-92 NSCLC
- protocol.description: NCI tumour cell line growth inhibition, 48 h
Form field: TGI (one value per entry).
assay.readout: TGI

| compound | value |
| --- | --- |
| CC1=NN2CCC(=O)N=C2S1 | > 100 µM |
| Cc1c(Cl)cccc1NC(=O)C(=O)c1c(O)c2ccc(O)cc2oc1=O | > 100 µM |
| CC(C)OP(=O)(OC(C)C)/C(C#N)=C/c1c[nH]c2ccccc12 | > 100 µM |
| O=C(O)C1CSC2(CCCN(Cc3ccccc3)C2)N1 (centres undefined) | > 100 µM |
| COC(=N)CCCl | > 100 µM |
| O=c1[nH]c2ccc(C(F)(F)F)cc2nc1C(F)(F)F | 30.2 µM |
| O=C(CN1CCN(c2ccccn2)CC1)N1CCCn2c1nc1ccccc1c2=O | > 100 µM |
| NNS(=O)(=O)c1ccc(/C=C2\NC(=O)NC2=O)cc1 | > 100 µM |
| Nc1ccn(CC(O)c2cc3ccccc3[nH]2)c(=O)n1 (centres undefined) | > 100 µM |
| Cc1nc2sc(C(=O)Nc3ccccc3)c(N)c2cc1C(=O)c1ccccc1 | > 50 µM |
| C=C(Cl)CN1c2ccccc2C=Cc2ccccc21 | 61.2 µM |
| Cc1nccn1S(=O)(=O)c1ccc(Cl)cc1 | 64.3 µM |
| NC(=O)c1nc(-c2ccc(Cl)c(Cl)c2)nc2ccccc12 | 4.74 µM |
| Cc1c2ccccc2c(C)n2c1nc1cc(Cl)c(Cl)cc12 | > 100 µM |
